Target or system UniProt:Q96GD4; recorded quantity pIC50.
Sequence (Q96GD4 whole entry): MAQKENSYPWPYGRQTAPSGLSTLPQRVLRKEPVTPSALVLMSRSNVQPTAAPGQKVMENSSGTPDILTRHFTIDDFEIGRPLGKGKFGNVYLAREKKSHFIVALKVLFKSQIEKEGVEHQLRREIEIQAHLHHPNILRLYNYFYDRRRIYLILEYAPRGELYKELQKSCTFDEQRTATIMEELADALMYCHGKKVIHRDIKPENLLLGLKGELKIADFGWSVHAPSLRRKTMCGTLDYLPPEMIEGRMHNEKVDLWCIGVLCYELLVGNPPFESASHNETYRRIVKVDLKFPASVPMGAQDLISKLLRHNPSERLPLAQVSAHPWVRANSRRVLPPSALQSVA
pIC50: −log10 of the molar value.
observation-type: pIC50

1. Cn1cc(Nc2ncc(Cl)c(N[C@@H]3[C@H]4CC[C@H](C4)[C@@H]3C(N)=O)n2)cn1: 8.10
2. Cn1cc(Nc2ncc(C(N)=O)c(N[C@H]3[C@@H](C(N)=O)[C@@H]4C=C[C@H]3C4)n2)cn1: 6.71
3. Cn1cc(Nc2ncc(Cl)c(N[C@H]3[C@H]4CC[C@H](C4)[C@H]3C(N)=O)n2)cn1: 7.51
4. Cn1cc(Nc2ncc(C(F)(F)F)c(N[C@H]3[C@@H](C(=O)NC4CC4)[C@@H]4C=C[C@H]3C4)n2)cn1: 7.29
5. Cn1cc(Nc2ncc([N+](=O)[O-])c(N[C@H]3[C@@H](C(N)=O)[C@@H]4C=C[C@H]3C4)n2)cn1: 7.82
6. Cn1cc(Nc2ncc(C(F)(F)F)c(N[C@H]3[C@@H](C(N)=O)[C@@H]4C=C[C@H]3C4)n2)cn1: 7.55
7. Cn1cc(Nc2ncc(C(F)(F)F)c(N[C@H]3[C@@H](C(=O)NCCO)[C@@H]4C=C[C@H]3C4)n2)cn1: 7.00
8. Cn1cc(Nc2ncc(Cl)c(N[C@@H]3CCCC[C@@H]3C(N)=O)n2)cn1: 6.87
9. NC(=O)[C@@H]1[C@H](Nc2nc(Nc3cnn(C4CCNCC4)c3)ncc2Cl)[C@H]2C=C[C@@H]1C2: 7.92
10. NC(=O)Cn1cc(Nc2ncc(Cl)c(N[C@H]3[C@@H](C(N)=O)[C@@H]4C=C[C@H]3C4)n2)cn1: 7.60
11. Cn1cc(Nc2ncc(Cl)c(N[C@H]3[C@@H](C(N)=O)[C@@H]4C=C[C@H]3C4)n2)cn1: 7.54
12. Cn1cc(Nc2nccc(N[C@H]3[C@@H](C(N)=O)[C@@H]4C=C[C@H]3C4)n2)cn1: 6.53

----------
Test: Aqueous solubility of the compound at pH 7.4 after 24 hrs by chemiluminescent nitrogen detection
Type: physicochemical
observation-type: solubility at 24 h

1) NC(=O)[C@@H]1[C@H](Nc2nc(Nc3cnn(CC(=O)O)c3)ncc2Cl)[C@H]2C=C[C@@H]1C2: 71 µM
2) NC(=O)[C@@H]1[C@H](Nc2nc(Nc3cnn(C[C@H]4CCCN4)c3)ncc2Cl)[C@H]2C=C[C@@H]1C2: 86 µM
3) NC(=O)[C@@H]1[C@H](Nc2nc(Nc3cnn(C4CCNCC4)c3)ncc2Cl)[C@H]2C=C[C@@H]1C2: 68 µM
4) NC(=O)Cn1cc(Nc2ncc(Cl)c(N[C@H]3[C@@H](C(N)=O)[C@@H]4C=C[C@H]3C4)n2)cn1: 68 µM

----------
Molecular target: Platelet-derived growth factor receptor alpha (Homo sapiens)
Sequence (P16234 whole entry): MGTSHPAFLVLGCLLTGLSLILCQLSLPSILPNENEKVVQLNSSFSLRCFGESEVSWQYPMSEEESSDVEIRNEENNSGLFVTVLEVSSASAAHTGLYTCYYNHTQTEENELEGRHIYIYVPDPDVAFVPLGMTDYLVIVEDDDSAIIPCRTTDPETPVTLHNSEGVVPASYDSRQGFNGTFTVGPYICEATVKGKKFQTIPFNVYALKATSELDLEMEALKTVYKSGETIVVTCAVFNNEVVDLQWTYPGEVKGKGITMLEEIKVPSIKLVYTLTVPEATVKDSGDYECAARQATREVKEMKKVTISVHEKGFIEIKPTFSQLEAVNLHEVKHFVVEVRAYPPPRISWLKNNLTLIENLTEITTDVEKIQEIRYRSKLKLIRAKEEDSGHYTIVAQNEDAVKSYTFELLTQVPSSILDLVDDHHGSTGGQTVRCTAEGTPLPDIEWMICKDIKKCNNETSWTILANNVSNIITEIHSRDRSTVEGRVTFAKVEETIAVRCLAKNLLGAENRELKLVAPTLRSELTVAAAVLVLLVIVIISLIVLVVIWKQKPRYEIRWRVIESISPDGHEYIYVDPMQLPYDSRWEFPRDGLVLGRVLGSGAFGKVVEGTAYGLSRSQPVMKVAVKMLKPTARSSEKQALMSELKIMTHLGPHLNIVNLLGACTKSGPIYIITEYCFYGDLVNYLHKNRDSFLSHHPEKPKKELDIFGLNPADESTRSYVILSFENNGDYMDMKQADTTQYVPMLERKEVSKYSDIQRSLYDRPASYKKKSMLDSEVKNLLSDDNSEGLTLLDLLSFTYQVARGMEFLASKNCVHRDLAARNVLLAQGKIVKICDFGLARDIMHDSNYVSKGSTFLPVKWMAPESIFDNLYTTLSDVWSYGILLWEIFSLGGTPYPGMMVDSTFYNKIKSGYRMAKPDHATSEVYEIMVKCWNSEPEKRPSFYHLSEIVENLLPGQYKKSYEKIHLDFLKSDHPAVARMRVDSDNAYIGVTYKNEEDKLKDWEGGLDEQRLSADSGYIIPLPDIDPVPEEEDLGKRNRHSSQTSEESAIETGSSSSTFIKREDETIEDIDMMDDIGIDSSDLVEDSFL
pIC50: −log10 of the molar value.
observation-type: pIC50

1) Cn1cc(Nc2ncc(Br)c(N[C@H]3[C@@H](C(N)=O)[C@@H]4C=C[C@H]3C4)n2)cn1: 9.00

----------
Target: Aurora kinase A (Homo sapiens)
Sequence (O14965 whole entry): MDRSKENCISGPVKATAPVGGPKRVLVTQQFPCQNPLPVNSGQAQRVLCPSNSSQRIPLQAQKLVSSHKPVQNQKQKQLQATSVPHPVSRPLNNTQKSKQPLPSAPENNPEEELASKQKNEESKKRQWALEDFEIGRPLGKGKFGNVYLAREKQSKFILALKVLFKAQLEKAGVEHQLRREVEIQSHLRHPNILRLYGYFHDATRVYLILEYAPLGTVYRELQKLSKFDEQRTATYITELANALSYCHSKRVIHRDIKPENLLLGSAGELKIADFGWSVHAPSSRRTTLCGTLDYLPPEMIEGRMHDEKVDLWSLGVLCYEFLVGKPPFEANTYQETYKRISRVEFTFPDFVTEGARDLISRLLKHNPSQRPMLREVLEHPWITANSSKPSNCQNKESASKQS
observation-type: IC50 (nM)

1) Cn1cc(Nc2ncc(Br)c(N[C@H]3[C@@H](C(N)=O)[C@@H]4C=C[C@H]3C4)n2)cn1: 3

----------
Target: Glycogen synthase kinase-3 beta (Homo sapiens)
Sequence (P49841 whole entry): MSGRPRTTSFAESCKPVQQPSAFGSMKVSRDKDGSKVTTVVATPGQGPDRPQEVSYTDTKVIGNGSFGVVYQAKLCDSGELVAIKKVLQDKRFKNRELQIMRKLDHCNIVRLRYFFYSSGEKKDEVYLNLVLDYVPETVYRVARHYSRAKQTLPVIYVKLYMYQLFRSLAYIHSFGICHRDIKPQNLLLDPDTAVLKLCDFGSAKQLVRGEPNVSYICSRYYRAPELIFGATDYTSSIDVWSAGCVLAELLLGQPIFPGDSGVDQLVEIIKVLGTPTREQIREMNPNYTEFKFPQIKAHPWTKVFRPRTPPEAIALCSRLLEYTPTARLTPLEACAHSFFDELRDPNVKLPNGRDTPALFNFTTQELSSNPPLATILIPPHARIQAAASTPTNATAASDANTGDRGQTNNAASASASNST
observation-type: IC50 (nM)

1) Cn1cc(Nc2ncc(Br)c(N[C@H]3[C@@H](C(N)=O)[C@@H]4C=C[C@H]3C4)n2)cn1: 34

----------
Examples of compounds with documented pIC50 follow.
Target: Vascular endothelial growth factor receptor 2 (Homo sapiens, UniProt P35968)
Sequence (P35968 whole entry): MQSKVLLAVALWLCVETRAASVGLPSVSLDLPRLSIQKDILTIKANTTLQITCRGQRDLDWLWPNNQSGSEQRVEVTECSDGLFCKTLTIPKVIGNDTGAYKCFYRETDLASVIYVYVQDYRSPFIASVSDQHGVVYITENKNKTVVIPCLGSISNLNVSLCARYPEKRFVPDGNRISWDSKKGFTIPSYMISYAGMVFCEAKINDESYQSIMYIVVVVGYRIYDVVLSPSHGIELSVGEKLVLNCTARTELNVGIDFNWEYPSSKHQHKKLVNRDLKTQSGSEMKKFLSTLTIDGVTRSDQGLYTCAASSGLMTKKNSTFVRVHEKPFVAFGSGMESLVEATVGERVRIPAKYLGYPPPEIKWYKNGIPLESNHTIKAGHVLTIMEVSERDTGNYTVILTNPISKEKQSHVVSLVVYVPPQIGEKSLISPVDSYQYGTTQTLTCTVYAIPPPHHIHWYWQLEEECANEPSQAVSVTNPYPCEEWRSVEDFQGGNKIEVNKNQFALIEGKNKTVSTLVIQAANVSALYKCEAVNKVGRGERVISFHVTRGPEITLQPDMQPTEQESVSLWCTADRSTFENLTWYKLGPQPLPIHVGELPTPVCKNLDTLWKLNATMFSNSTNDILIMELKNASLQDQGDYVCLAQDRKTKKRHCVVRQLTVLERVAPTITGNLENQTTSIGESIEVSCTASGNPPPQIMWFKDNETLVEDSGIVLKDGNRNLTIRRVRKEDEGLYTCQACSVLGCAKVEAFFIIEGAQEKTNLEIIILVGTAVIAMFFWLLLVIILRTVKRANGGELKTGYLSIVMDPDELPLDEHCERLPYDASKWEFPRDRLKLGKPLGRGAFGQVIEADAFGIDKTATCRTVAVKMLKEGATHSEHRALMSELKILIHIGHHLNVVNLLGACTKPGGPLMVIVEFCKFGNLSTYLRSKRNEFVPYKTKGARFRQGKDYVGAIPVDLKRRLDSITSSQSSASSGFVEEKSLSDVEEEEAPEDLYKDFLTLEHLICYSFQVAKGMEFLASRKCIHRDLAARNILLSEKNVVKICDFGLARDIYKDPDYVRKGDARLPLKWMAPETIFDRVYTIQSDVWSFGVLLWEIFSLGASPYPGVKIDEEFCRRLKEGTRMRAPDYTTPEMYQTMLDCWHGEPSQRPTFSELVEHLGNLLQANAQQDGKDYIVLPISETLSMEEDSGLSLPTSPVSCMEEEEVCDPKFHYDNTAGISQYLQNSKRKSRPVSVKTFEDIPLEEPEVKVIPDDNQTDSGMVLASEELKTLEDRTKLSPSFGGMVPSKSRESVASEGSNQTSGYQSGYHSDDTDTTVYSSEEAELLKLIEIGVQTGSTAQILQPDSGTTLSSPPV
Assay: Inhibition of human KDR autophosphorylation expressed in mouse NIH/3T3 cells
Assay type: cell-based, NIH3T3
pIC50: −log10 of the molar value.
observation-type: pIC50

1. NC(=O)Cn1cc(Nc2ncc(Cl)c(N[C@H]3[C@@H](C(N)=O)[C@@H]4C=C[C@H]3C4)n2)cn1: 6.78
2. Cn1cc(Nc2ncc(Cl)c(N[C@@H]3[C@H]4CC[C@H](C4)[C@@H]3C(N)=O)n2)cn1: 7.08
3. Cn1cc(Nc2ncc(C(F)(F)F)c(N[C@H]3[C@@H](C(N)=O)[C@@H]4C=C[C@H]3C4)n2)cn1: 7.46

----------
Here the recorded IC50 is given for each entry.
Biological target: Vascular endothelial growth factor receptor 2 (Homo sapiens, UniProt P35968)
Assay: Inhibition of KDR by HTRF analysis in presence of 1 mM ATP
observation-type: IC50 (nM)

1) Cn1cc(Nc2ncc(Cl)c(N[C@H]3[C@H]4CC[C@H](C4)[C@H]3C(N)=O)n2)cn1: 19
2) CNC(=O)Cn1cc(Nc2ncc(Cl)c(N[C@H]3[C@@H](C(N)=O)[C@@H]4C=C[C@H]3C4)n2)cn1: 6
3) COc1cnc(Nc2cnn(C)c2)nc1N[C@H]1[C@@H](C(N)=O)[C@@H]2C=C[C@H]1C2: 922
4) Cn1cc(Nc2ncc(Cl)c(N[C@@H]3CCC[C@@H]3C(N)=O)n2)cn1: 246

----------
Target: Fibroblast growth factor receptor 2 (Homo sapiens, UniProt P21802)
Sequence (P21802 whole entry): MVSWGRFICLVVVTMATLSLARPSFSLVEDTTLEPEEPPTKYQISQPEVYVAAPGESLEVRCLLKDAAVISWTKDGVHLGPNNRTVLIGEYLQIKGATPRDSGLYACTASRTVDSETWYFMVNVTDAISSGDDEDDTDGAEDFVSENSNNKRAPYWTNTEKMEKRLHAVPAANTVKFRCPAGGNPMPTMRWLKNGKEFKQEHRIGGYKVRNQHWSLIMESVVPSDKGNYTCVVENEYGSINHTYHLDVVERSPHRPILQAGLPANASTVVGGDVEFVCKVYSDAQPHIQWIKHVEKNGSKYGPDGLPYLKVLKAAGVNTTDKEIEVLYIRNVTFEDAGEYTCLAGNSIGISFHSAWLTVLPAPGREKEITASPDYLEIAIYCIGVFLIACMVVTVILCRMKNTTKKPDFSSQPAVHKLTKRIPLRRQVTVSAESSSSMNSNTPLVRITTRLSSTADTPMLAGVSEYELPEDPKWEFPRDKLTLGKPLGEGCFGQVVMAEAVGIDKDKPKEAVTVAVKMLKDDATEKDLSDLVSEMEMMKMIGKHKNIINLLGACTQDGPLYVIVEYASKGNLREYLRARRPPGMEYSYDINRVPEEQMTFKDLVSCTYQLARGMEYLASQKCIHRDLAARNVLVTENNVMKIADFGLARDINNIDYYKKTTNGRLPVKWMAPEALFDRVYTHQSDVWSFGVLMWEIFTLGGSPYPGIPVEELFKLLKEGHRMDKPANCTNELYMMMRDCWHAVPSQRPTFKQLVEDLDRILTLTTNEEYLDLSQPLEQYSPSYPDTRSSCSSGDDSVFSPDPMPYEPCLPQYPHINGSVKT
pIC50: −log10 of the molar value.
observation-type: pIC50

1) Cn1cc(Nc2ncc(Br)c(N[C@H]3[C@@H](C(N)=O)[C@@H]4C=C[C@H]3C4)n2)cn1: 8.70

----------
Assay: Aqueous solubility of the compound at pH 7.4 after 24 hrs by chemiluminescent nitrogen detection
Format: physicochemical
Below, each entry is listed with its recorded solubility at 24 h.
observation-type: solubility at 24 h

1) NC(=O)[C@@H]1[C@H](Nc2nc(Nc3cnn(CCO)c3)ncc2Cl)[C@H]2C=C[C@@H]1C2: 70 µM
2) NC(=O)[C@@H]1[C@H](Nc2nc(Nc3cnn([C@@H]4CCCNC4)c3)ncc2Cl)[C@H]2C=C[C@@H]1C2: 70 µM
3) Cn1cc(Nc2ncc(Cl)c(N[C@H]3[C@@H](C(N)=O)[C@@H]4C=C[C@H]3C4)n2)cn1: 78 µM
4) NC(=O)[C@@H]1[C@H](Nc2nc(Nc3cnn(CCN4CCOCC4)c3)ncc2Cl)[C@H]2C=C[C@@H]1C2: 85 µM
5) CCn1cc(Nc2ncc(Cl)c(N[C@H]3[C@@H](C(N)=O)[C@@H]4C=C[C@H]3C4)n2)cn1: 70 µM
6) NC(=O)[C@@H]1[C@H](Nc2nc(Nc3cnn(Cc4ccccc4)c3)ncc2Cl)[C@H]2C=C[C@@H]1C2: 4 µM
7) CNC(=O)Cn1cc(Nc2ncc(Cl)c(N[C@H]3[C@@H](C(N)=O)[C@@H]4C=C[C@H]3C4)n2)cn1: 72 µM

----------
Target: Vascular endothelial growth factor receptor 2 (Homo sapiens)
Assay: Inhibition of KDR by HTRF analysis in presence of 1 mM ATP
Quick reference for IC50 among some molecules
observation-type: IC50

1. Cn1cc(Nc2ncc(Cl)c(N[C@H]3[C@@H](C(N)=O)[C@@H]4C=C[C@H]3C4)n2)cn1: 14 nM
2. NC(=O)[C@@H]1[C@H](Nc2nc(Nc3cnn(CC(=O)O)c3)ncc2Cl)[C@H]2C=C[C@@H]1C2: 1 nM
3. Cn1cc(Nc2ncc(C(F)(F)F)c(N[C@@H]3[C@H]4CC[C@H](C4)[C@@H]3C(N)=O)n2)cn1: 74 nM
4. CNC(=O)[C@@H]1[C@H](Nc2nc(Nc3cnn(C)c3)ncc2C(F)(F)F)[C@H]2C=C[C@@H]1C2: 68 nM
5. NC(=O)[C@@H]1[C@H](Nc2nc(Nc3cnn([C@@H]4CCCNC4)c3)ncc2Cl)[C@H]2C=C[C@@H]1C2: 2 nM
6. NC(=O)[C@@H]1[C@H](Nc2nc(Nc3cnn(Cc4ccccc4)c3)ncc2Cl)[C@H]2C=C[C@@H]1C2: 7 nM
7. Cn1cc(Nc2ncc(Cl)c(N[C@@H]3CC[C@@H]3C(N)=O)n2)cn1: 153 nM
8. CCn1cc(Nc2ncc(Cl)c(N[C@H]3[C@@H](C(N)=O)[C@@H]4C=C[C@H]3C4)n2)cn1: 3 nM
